Molecular target: hBChE
measuredProperty: pIC50
pIC50 here is simply -log10 of the concentration when that concentration is written in mol/L.

Sample "CN(C)CCNC(=O)c1cc2c(cnn2C)cc1Cc1ccc(F)cc1F" ; pIC50 observed: 5.39

The reported value for "CN(C)CCNC(=O)c1cc2c(cc1Cc1ccc(F)cc1F)CNN2C" in terms of pIC50 is 5.97

The measured pIC50 associated with "O=C(NCCn1ccnc1)c1cc2nn(CC3CCCCC3)cc2cc1Oc1ccc(F)cc1F" reads 7.18

###

Assay: Pharmacokinetic study in mice
Conditions: male, CD-1, mouse, brain, ip, 2.5 mg/kg
measuredProperty: Tmax
# include the unit after the value

What the record says about CCN(C)C(=O)Oc1cccc([C@H](C)N(C)C)c1 [rivastigmine, reference compound] : Tmax is 5 min

Numbers sourced from paper PMC12406203.
